Below is a list of entries, each paired with its recorded EC50 value.
# tested-on: FXR (Homo sapiens)
# Sequence (Q96RI1 whole entry): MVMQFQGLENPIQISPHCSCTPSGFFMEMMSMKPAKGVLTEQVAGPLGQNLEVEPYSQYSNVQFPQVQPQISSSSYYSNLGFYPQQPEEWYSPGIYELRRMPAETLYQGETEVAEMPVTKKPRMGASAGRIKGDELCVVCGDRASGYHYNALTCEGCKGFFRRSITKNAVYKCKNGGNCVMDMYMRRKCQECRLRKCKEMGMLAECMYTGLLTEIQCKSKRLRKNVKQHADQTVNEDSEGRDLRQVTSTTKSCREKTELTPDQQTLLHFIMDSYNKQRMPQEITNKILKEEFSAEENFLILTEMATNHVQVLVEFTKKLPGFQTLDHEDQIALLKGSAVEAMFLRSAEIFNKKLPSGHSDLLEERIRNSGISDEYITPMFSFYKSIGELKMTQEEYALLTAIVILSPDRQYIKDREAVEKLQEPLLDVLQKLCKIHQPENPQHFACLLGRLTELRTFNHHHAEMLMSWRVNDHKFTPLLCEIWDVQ
# Sequence (P19793 whole entry partner): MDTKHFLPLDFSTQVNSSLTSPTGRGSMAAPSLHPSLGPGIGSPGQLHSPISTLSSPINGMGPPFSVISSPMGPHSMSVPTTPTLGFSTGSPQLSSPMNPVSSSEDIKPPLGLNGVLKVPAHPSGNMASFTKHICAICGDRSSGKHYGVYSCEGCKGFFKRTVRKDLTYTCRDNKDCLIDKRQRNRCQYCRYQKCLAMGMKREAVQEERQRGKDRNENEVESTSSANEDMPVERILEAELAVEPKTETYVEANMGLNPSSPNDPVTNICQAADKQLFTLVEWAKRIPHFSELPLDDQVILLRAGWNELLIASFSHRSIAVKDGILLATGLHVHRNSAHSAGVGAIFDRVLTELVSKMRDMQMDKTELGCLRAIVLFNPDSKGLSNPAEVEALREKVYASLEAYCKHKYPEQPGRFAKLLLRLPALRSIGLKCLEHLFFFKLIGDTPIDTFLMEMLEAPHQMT
# test-method-notes: FXR transactivation luciferase reporter assay in transfected HepG2 cells
# setup-conditions: EC50 FXR transactivation, HepG2 cells transfected with FXR, 100 nM to 25 μM, mean ± standard error
quantity: EC50 (µM)

{"columns": ["compound", "tested-on", "unit-info", "value"],
 "data": [
  ["CCC1C(O)C2C3CCC(C(C)CCCCCOS(=O)(=O)O)C3(C)CCC2C2(C)CCC(O)CC12 (centres unmarked) [compound 19]", "FXR (Homo sapiens)", "µM", 1.7],
  ["CCC1C(O)C2C3CCC(C(C)CCO)C3(C)CCC2C2(C)CCC(O)CC12 (centres unmarked) [compound 14]", "FXR (Homo sapiens)", "µM", 5.3]
]}
